# Measurement Notes: Solubilities of S-curcumin and C3-complex curcumin in different organic solvents
# Assay type: physicochemical
# Measurement Parameters: organic solvent or mixture; solvent acetonitrile; read-out: Conc. (solubility)
Property: solubility

In [3]: df
Out[3]:
                           structure_string  reported_value
0  COc1cc(C=CC(=O)CC(=O)C=Cc2ccc(O)c(OC)c2)ccc1O      5440 µg/mL

* * *

# Measurement Notes: Solubilities of S-curcumin and C3-complex curcumin in different organic solvents
# Assay type: physicochemical
# Measurement Parameters: organic solvent or mixture; solvent ethyl acetate; read-out: Conc. (solubility)
Property: solubility

>>> df
                                   compound    property  reported_value
0  COc1cc(C=CC(=O)CC(=O)C=Cc2ccc(O)c(OC)c2)ccc1O [S-curcumin]  solubility      10.4 mg/mL
